B1: CHMP4C (parent)
chain: TNIRLPNVPSSSLPAQPNRKPGMS

- Variants of: B1
- assayInfo: protein stability index of a GFP-peptide fusion (GPS, HEK-293T) (PSI 1-6); higher = more stable;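 also: lentivirally expressed fusions sorted by FACS into six bins by GFP to DsRed ratio, PSI derived from sequencing read proportions per bin multiplied by bin number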
- conditions: c terminus: a fixed tail appended
# label = yes if protein stability index >= 4 else no

> print(dat)
                   primarysequence  classassignment
1  TNIRLPNVPSSSLPAQPNRKPGMP [S24P]              yes

stdin: Can TNIRLPNVPSSWLPAQPNRKPGMS [S12W] be said to have protein stability index at or above 4?
stdout: no

stdin: State whether the measured protein stability index reaches 4, counting equality as reaching it, for TNIRLPNVPSSSLPAQPNRKPGMY [S24Y]
stdout: yes

stdin: Does TNIRLPNVPSSSFPAQPNRKPGMS [L13F] have a reported protein stability index of at least 4?
stdout: yes

stdin: Threshold query (protein stability index >= 4) on TNIRLPNIPSSSLPAQPNRKPGMS [V8I]
stdout: yes

stdin: Dear colleague, could you confirm whether TNIRLPNVPSSSLPAQFNRKPGMS [P17F] has protein stability index at or above 4?
stdout: yes

stdin: Check the entry TNIRLPNVFSSSLPAQPNRKPGMS [P9F] : does protein stability index equal or exceed 4?
stdout: yes

stdin: Does the variant TNIRLPNVPSSSLPAQPNRPPGMS [K20P] have recorded protein stability index that is 4 or more?
stdout: no

stdin: Check the entry TNIRLPNVPSSSLPAQPNRKPGAS [M23A] : does protein stability index equal or exceed 4?
stdout: yes

stdin: Does TNERLPNVPSSSLPAQPNRKPGMS [I3E] have a reported protein stability index of at least 4?
stdout: yes

stdin: Tell me whether protein stability index is at least 4 here: TNIRLPNVQSSSLPAQPNRKPGMS [P9Q]
stdout: yes
